# Test system: LXRa:RXRa (NR concentration 270 nM, RXRa partner concentration 90 nM)
# Test name: PBM binding z-score (relative to random genomic background probes); higher = stronger binding; sequences stand for … in GC…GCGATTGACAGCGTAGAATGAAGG
Entry class follows PBM binding z-score: range 1: < 0.8; range 2: ≥ 0.8 and < 4; range 3: ≥ 4

Lab note: which band did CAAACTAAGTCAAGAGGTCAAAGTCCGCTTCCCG land in?
range 3

Then this sequence: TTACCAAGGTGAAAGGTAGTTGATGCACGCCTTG
range 2

Then this sequence: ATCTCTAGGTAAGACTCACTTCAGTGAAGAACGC
range 1

Then this sequence: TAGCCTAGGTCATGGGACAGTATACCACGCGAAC
range 2

Then this sequence: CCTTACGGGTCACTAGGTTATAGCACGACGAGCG
range 2

Then this sequence: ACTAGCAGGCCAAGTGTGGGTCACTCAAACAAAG
range 1

Then this sequence: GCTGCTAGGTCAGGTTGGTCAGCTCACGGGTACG
range 2

Then this sequence: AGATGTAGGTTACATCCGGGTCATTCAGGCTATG
range 3

Then this sequence: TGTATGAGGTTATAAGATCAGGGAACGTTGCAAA
range 2

Then this sequence: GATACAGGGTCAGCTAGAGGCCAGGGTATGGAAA
range 2

Then this sequence: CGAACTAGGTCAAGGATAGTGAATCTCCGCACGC
range 2

---

Would you kindly list PBM binding z-score for each of these sequences?
# Tested on: PPARg DBDmut IVT, anti-PPARg (DBD mutation: PPARg1 K132A/R137A, NR concentration 270 nM)
# Test name: PBM binding z-score (relative to random genomic background probes); higher = stronger binding; sequences stand for … in GC…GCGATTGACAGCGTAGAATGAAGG
Numbers only.

Here is how some sequences turned out for PBM binding z-score.
>  <Input sequence>
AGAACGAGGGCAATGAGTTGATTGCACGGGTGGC

>  <Experimental system>
PPARg DBDmut IVT, anti-PPARg (DBD mutation: PPARg1 K132A/R137A, NR concentration 270 nM)

>  <PBM binding z-score>
-0.0138

$$$$
>  <Input sequence>
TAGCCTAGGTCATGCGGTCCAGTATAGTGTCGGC

>  <Experimental system>
PPARg DBDmut IVT, anti-PPARg (DBD mutation: PPARg1 K132A/R137A, NR concentration 270 nM)

>  <PBM binding z-score>
0.0737

$$$$
>  <Input sequence>
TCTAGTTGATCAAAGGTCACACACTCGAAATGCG

>  <Experimental system>
PPARg DBDmut IVT, anti-PPARg (DBD mutation: PPARg1 K132A/R137A, NR concentration 270 nM)

>  <PBM binding z-score>
1.36

$$$$
>  <Input sequence>
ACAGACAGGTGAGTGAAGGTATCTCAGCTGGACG

>  <Experimental system>
PPARg DBDmut IVT, anti-PPARg (DBD mutation: PPARg1 K132A/R137A, NR concentration 270 nM)

>  <PBM binding z-score>
-1.07

$$$$
>  <Input sequence>
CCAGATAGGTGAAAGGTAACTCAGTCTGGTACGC

>  <Experimental system>
PPARg DBDmut IVT, anti-PPARg (DBD mutation: PPARg1 K132A/R137A, NR concentration 270 nM)

>  <PBM binding z-score>
-0.0951

$$$$

I'm hoping you can list PBM binding z-score for every sequence here, please.
1. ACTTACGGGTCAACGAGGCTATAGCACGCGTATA
2. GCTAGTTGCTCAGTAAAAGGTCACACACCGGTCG
3. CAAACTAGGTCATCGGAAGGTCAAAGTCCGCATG
4. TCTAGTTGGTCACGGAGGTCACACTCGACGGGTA
5. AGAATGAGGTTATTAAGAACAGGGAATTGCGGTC
6. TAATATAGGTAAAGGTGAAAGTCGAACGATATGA

1: 1.38; 2: 0.0665; 3: 2.98; 4: 0.684; 5: 0.0753; 6: 2.3

Which value of PBM binding z-score has been reported for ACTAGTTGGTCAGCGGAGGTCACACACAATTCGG in the records?
0.469
